target: Botulinum neurotoxin type A (Clostridium botulinum); experiment: BoNT/A light chain protease inhibitors, biochemical, multiplex microsphere flow cytometry, validation set (AID 588460); conditions: at 10 µM, stronger effect = higher value
In this section we review reported inhibition values for a set of compounds.
reported_property: inhibition (%)

> print(dat)
                                    compound  result
 1  CC1(C)c2ccccc2N2CC(=O)NC21/C=C/c1ccco1 (stereo not drawn)     0.5
 2  Clc1ccc(COC(Cn2ccnc2)c2ccc(Cl)cc2Cl)c(Cl)c1 (stereo not drawn)    -0.5
 3  CC(C)COCC1CC2(CC(C)(c3csc(N)n3)OC2=O)C(=O)O1 (stereo not drawn)    -1.9
 4      Clc1ccc(Cn2c(CN3CCCC3)nc3ccccc32)cc1      -1
 5  OCCC1CN(Cc2ccccc2-c2ccco2)CCN1C1CCCC1 (stereo not drawn)     0.5
 6  O=C1CC(c2ccc(OCCCCCOc3ccc(C4CC(=O)NC4=O)cc3)cc2)C(=O)N1 (stereo not drawn)     1.1
 7       CCOc1ccc2oc(-c3ccccc3)c(C(=O)O)c2c1    -0.2
 8  COc1ccc(-c2[nH]ncc2CN(CCO)Cc2cccs2)c(F)c1     0.8
 9      O[C@@H](CNC[C@H](O)c1ccccc1)c1ccccc1     1.5
10  O=C(OCC1OC2OC3(CCCCC3)OC2C2OC3(CCCCC3)OC12)c1ccccc1 (stereo not drawn)     2.6
11  Cc1nc2ccccc2n1CC(O)Cn1c2ccccc2c2ccccc21 (stereo not drawn)    -0.1
12     CCN(CC)CCNC(=O)c1cc(S(C)(=O)=O)ccc1OC     1.8
13  C[C@]12CC[C@@H](O)C[C@@H]1CC[C@@H]1[C@@H]2CC[C@]2(C)[C@@H](O)CC[C@@H]12     0.9
14          O=C(OCCN1CCCC1)C1(c2ccccc2)CCCC1    -2.9
15  CC(=O)N1CCN2C(=O)C1CCCC(=O)c1cc(C(C)C)ccc12 (stereo not drawn)    -1.6
16   COC(=O)c1cc(OC)c(OC)c(OC)c1[N+](=O)[O-]     0.1
17  O=C(CCCN1CC=C(n2c(=O)[nH]c3ccccc32)CC1)c1ccc(F)cc1      -1
18                       c1ccc(-c2ccccn2)nc1     0.3
19  CCn1ccnc1CN1CCCC(C(=O)c2cc(F)ccc2OC)C1 (stereo not drawn)    -1.2
20  CC(C)CN1CC(C(=O)O)CC1=O (stereo not drawn)    -1.3
21             COC(=O)c1[nH]c(=O)c2ccccc2c1O     0.2
22      Cc1[nH]c2ccccc2c1C(=O)C(=O)NCc1ccco1    -0.7
23  O=c1[nH]c2ccccc2n1CCCN1CCC(n2c(=O)[nH]c3cc(Cl)ccc32)CC1     1.3
